system: THP-1; assay: Antiinflammatory activity in LPS-stimulated human THP1 cells assessed as inhibition of IL6 formation at 1 uM pretreated 30 mins before LPS challenge measured after 24 hrs by ELISA; assay type: functional; set-up: scale not given: the % may be the effect or the level left
recordedEndpoint: Activity

// known answers, use as guide
| givenSmiles | targetDesc | observedValue |
| --- | --- | --- |
| COc1cc(OC)c(C(=O)c2ccccc2F)c(O)c1CN1CCOCC1 | THP-1 | 19% |
| COc1cc(OC)c(C(=O)c2cccc(F)c2)c(O)c1CN1CCCCC1 | THP-1 | 30% |
| COc1cc(OC)c(C(=O)c2ccccc2Br)c(O)c1CN1CCN(C)CC1 | THP-1 | 9% |
| COc1cc(OC)c(C(=O)c2ccccc2F)c(O)c1CN1CCCCC1 | THP-1 | 18% |
| COc1cc(OC)c(C(=O)c2ccccc2F)c(O)c1CN1CCN(C)CC1 | THP-1 | 21% |

Kindly consider the entry below.
Input line: What value of Activity has been reported for the following compound? COc1cc(OC)c(C(=O)c2ccccc2Br)c(O)c1CN1CCCCC1
Output line: 22%

====

assay: Cytotoxicity against LPS-stimulated human THP-1 cells at 10 uM after 24 hrs by CCK-8 assay; conditions: THP-1, 24 h
Strictly below 40% in Activity: Criterion met. Otherwise: Criterion not met.

Worked cases, answers included:
| givenSmiles | class |
| --- | --- |
| COc1cc(OC)c(C(=O)c2cccc(Cl)c2)c(O)c1CN1CCCCC1 | Criterion met |
| COc1cc(OC)c(C(=O)c2ccccc2Br)c(O)c1CN1CCN(C)CC1 | Criterion met |
| COc1cc(OC)c(C(=O)c2cccc(F)c2)c(O)c1CN1CCCC1 | Criterion met |
| COc1cc(OC)c(C(=O)c2cccc(F)c2)c(O)c1CN1CCOCC1 | Criterion not met |

Input line: # check: Activity < 40% for COc1cc(OC)c(C(=O)c2cccc(Cl)c2)c(O)c1CN1CCCC1
Output line: Criterion not met

Input line: Just wondering, is Activity of COc1cc(O)c(C(=O)c2cccc(F)c2)c(OC)c1 below 40%?
Output line: Criterion met

Input line: In plain terms, does COc1cc(OC)c(C(=O)c2ccccc2Br)c(O)c1CN1CCOCC1 come in under 40% for Activity?
Output line: Criterion not met

Input line: Is Activity of COc1cc(OC)c(C(=O)c2cccc(Cl)c2)c(O)c1CN1CCN(C)CC1 strictly below 40%?
Output line: Criterion not met

Input line: Problem: For the compound COc1cc(O)c(C(=O)c2cccc(Cl)c2)c(OC)c1 , is Activity under 40%?
Output line: Criterion not met

====

tested on: Radical scavenging activity; experiment: Antioxidant activity assessed as DPPH free radical scavenging activity at 1 mM after 20 mins by spectrophotometry
The source made the active and inactive calls. No cut-off for these calls is given here.
recordedEndpoint: Activity

Here is how some molecules turned out for Activity.
| givenSmiles | recordedEndpoint | observedValue |
| --- | --- | --- |
| COc1cc(O)c(C(=O)c2cccc(F)c2)c(OC)c1 | Activity | inactive |
| COc1cc(O)c(C(=O)c2ccccc2Br)c(OC)c1 | Activity | inactive |
| COc1cc(OC)c(C(=O)c2cccc(Cl)c2)c(O)c1CN1CCCC1 | Activity | 5.13% |
| COc1cc(OC)c(C(=O)c2cccc(Cl)c2)c(O)c1CN1CCCCC1 | Activity | 45.3% |
| COc1cc(O)c(C(=O)c2ccccc2F)c(OC)c1 | Activity | 32.4% |

Input line: Fill blank: measured Activity of the molecule COc1cc(OC)c(C(=O)c2cccc(F)c2)c(O)c1CN1CCOCC1 is ____.
Output line: inactive

Input line: Form field: reported Activity of COc1cc(OC)c(C(=O)c2cccc(Cl)c2)c(O)c1CN1CCOCC1
Output line: 33.4%

Input line: // lookup Activity for COc1cc(OC)c(C(=O)c2ccccc2Br)c(O)c1CN1CCOCC1
Output line: 6.23%

Input line: Could you tell me which Activity is on file for COc1cc(O)c(C(=O)c2cccc(Cl)c2)c(OC)c1 ?
Output line: 16.4%

Input line: Activity lookup needed for COc1cc(OC)c(C(=O)c2ccccc2F)c(O)c1CN1CCN(C)CC1 , thanks.
Output line: 17.5%

Input line: What value of Activity has been recorded for this entry: COc1cc(OC)c(C(=O)c2ccccc2F)c(O)c1CN1CCCC1
Output line: 24.8%

Input line: For COc1cc(OC)c(C(=O)c2cccc(F)c2)c(O)c1CN1CCN(C)CC1 , what is its reported Activity?
Output line: 40.4%

Input line: # get_value(readout='Activity', item= COc1cc(OC)c(C(=O)c2ccccc2F)c(O)c1CN1CCCCC1 )
Output line: 73.3%

Input line: If you can, please state the reported Activity value of COc1cc(OC)c(C(=O)c2cccc(F)c2)c(O)c1CN1CCCCC1 .
Output line: 24.7%

Input line: Given COc1cc(OC)c(C(=O)c2ccccc2Br)c(O)c1CN1CCCC1 , state its recorded Activity.
Output line: inactive

Input line: Could you share which Activity value was measured for COc1cc(OC)c(C(=O)c2ccccc2Br)c(O)c1CN1CCN(C)CC1 ?
Output line: 13.5%

Input line: What measured Activity goes with COc1cc(OC)c(C(=O)c2cccc(F)c2)c(O)c1CN1CCCC1 ?
Output line: 7.29%

Input line: Item under review: COc1cc(OC)c(C(=O)c2ccccc2F)c(O)c1CN1CCOCC1 . Reported Activity?
Output line: 19.7%

Input line: What value of Activity has been reported for the following molecule? COc1cc(OC)c(C(=O)c2ccccc2Br)c(O)c1CN1CCCCC1
Output line: 64.4%

Input line: Given the entry COc1cc(OC)c(C(=O)c2cccc(Cl)c2)c(O)c1CN1CCN(C)CC1 , report its measured Activity.
Output line: inactive
